tested on: Streptococcus pneumoniae; experiment: Antibacterial activity against Streptococcus pneumoniae ATCC 49619 after 20 hrs by CLSI based-broth microdilution method; assay type: functional; settings: ATCC 49619, 20 h
measured metric: MIC (µg/mL)

>>> result_value("Nc1ccccc1Sc1ccc(CNc2ccccc2C(=O)O)cc1[N+](=O)[O-]")
64

P = NS(=O)(=O)c1cccc(NCc2ccc(Sc3ccc(Cl)c(Cl)c3)c([N+](=O)[O-])c2)c1
Q = O=C(O)c1cccc(NC(=O)c2ccc(Sc3ccc(Cl)c(Cl)c3)c([N+](=O)[O-])c2)c1
Between item P and item Q , which reported MIC is smaller? Your answer should be the label of the entry you select.
P
